B1: RSAD1 (parent)
chain: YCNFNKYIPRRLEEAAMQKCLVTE

Variants of: B1
Protocol summary: protein stability index of a GFP-peptide fusion (GPS, HEK-293T) (PSI 1-6); higher = more stable;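 further: lentivirally expressed fusions sorted by FACS into six bins by GFP to DsRed ratio, PSI derived from sequencing read proportions per bin multiplied by bin number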
Measurement setup: c terminus: a fixed tail appended
Measurement kind: protein stability index
Lab note: record the figure alone, no unit after it.

Query :: Request the reported protein stability index associated with C2D
Result :: 2.88

Query :: Request the reported protein stability index associated with V22L
Result :: 1.3

Query :: Request the reported protein stability index associated with A15M
Result :: 2.14

Query :: Request the reported protein stability index associated with R10G
Result :: 1.24

Query :: Request the reported protein stability index associated with N3T
Result :: 2.6

Query :: Request the reported protein stability index associated with R10Q
Result :: 1.96

Query :: Request the reported protein stability index associated with V22R
Result :: 3.88

Query :: Request the reported protein stability index associated with L21R
Result :: 1.51

Query :: Request the reported protein stability index associated with K6T
Result :: 2.79

Query :: Request the reported protein stability index associated with L21A
Result :: 2.09

Query :: Request the reported protein stability index associated with L12V
Result :: 2.74

Query :: Request the reported protein stability index associated with F4E
Result :: 2.07

Query :: Request the reported protein stability index associated with C2I
Result :: 1.76

Query :: Request the reported protein stability index associated with C20Y
Result :: 4.07

Query :: Request the reported protein stability index associated with Y1I
Result :: 2.76

Query :: Request the reported protein stability index associated with A15E
Result :: 1.84

Query :: Request the reported protein stability index associated with C20N
Result :: 2.44

Query :: Request the reported protein stability index associated with Q18Y
Result :: 2.88

Query :: Request the reported protein stability index associated with Q18V
Result :: 3.15

Query :: Request the reported protein stability index associated with Q18S
Result :: 2.02

Query :: Request the reported protein stability index associated with E13Q
Result :: 1.93

Query :: Request the reported protein stability index associated with Q18D
Result :: 1.84

Query :: Request the reported protein stability index associated with N3A
Result :: 2.13

Query :: Request the reported protein stability index associated with K6C
Result :: 1.43

Query :: Request the reported protein stability index associated with E13A
Result :: 2.63

Query :: Request the reported protein stability index associated with A16N
Result :: 3.66

Query :: Request the reported protein stability index associated with N3E
Result :: 1.99

Query :: Request the reported protein stability index associated with T23S
Result :: 1.93

Query :: Request the reported protein stability index associated with L12P
Result :: 2.95

Query :: Request the reported protein stability index associated with K6F
Result :: 3.19

Query :: Request the reported protein stability index associated with K6S
Result :: 2.19

Query :: Request the reported protein stability index associated with M17E
Result :: 2.44

Query :: Request the reported protein stability index associated with N3P
Result :: 2.03

Query :: Request the reported protein stability index associated with A16F
Result :: 1.74

Query :: Request the reported protein stability index associated with Y1R
Result :: 1.96

Query :: Request the reported protein stability index associated with Y1S
Result :: 2.46

Query :: Request the reported protein stability index associated with K6N
Result :: 2.56

Query :: Request the reported protein stability index associated with F4N
Result :: 2.49
